- method: in vitro
- Set-up: Viability of infected HeLa host cells, resazurin conversion, bulk resorufin fluorescence relative to DMSO
- condition-description: human, hela cells; bulk resorufin, mean of 2
Catalogue of viability at 28.5 h, 1 µM readings, one per entry.
assay-readout: viability at 28.5 h, 1 µM (%)

{"compound": "O=C(Nc1ccc(OC(F)(F)F)cc1)Nc1cc(-c2cccs2)n[nH]1 [CBK020563]", "assay-readout": "viability at 28.5 h, 1 µM", "endpoint-result": 113}
{"compound": "O=C(NCCc1c[nH]c2ccc(Cl)cc12)c1c(F)ccc(Cl)c1F [CBK159756]", "assay-readout": "viability at 28.5 h, 1 µM", "endpoint-result": 98.5}
{"compound": "COCC(=O)N[C@H]1C[C@H]2C(=O)Nc3ccc(/C=C/c4ccccc4)cc3C(=O)N2C1 [CBK289366]", "assay-readout": "viability at 28.5 h, 1 µM", "endpoint-result": 93.1}

---

- method: in vitro
- condition-description: human, hela cells, % viability
assay-readout: viability at 28.5 h, 10 µM (%)

{"compound": "CO[C@]1(c2ccc(Cl)cc2)CC[C@H](NCCCC(=O)c2ccc(F)cc2)CC1 [CBK015959C]", "endpoint-result": 90.2}
{"compound": "Cc1nn(C)c(N2CCNCC2)c1NC(=O)c1cc(-c2ccccc2)oc1C [CBK050356T]", "endpoint-result": 92.8}
{"compound": "COc1ccc2c(c1)C1(CC(=O)N(CCc3scnc3C)C1=O)C(=O)N2C (centres unmarked)", "endpoint-result": 91.6}
{"compound": "COc1ccc2c(c1)C(C[C@H]1CN(C(=O)C3CC3)CC[C@H]1CC(=O)O)=NCC2", "endpoint-result": 85.7}
{"compound": "O=C1CC(C(=O)Nc2ccccn2)c2ccccc2N1 (centres unmarked)", "endpoint-result": 101}

---

- method: in vitro
- condition-description: human, hela cells, % viability
assay-readout: viability at 28.5 h, 10 µM (%)

{"compound": "Cc1ncccc1OC1(C(=O)NCc2n[nH]c3c2CCC3)CCNCC1", "assay-readout": "viability at 28.5 h, 10 µM", "reading-unit": "%", "endpoint-result": 101}
{"compound": "CC(C)(C)Cc1ccc(CC(=O)O)c(OCc2ccccc2)n1", "assay-readout": "viability at 28.5 h, 10 µM", "reading-unit": "%", "endpoint-result": 92.6}
{"compound": "CN(C)S(=O)(=O)N(CC(=O)Nc1ccc2c(c1)OCO2)c1ccccc1", "assay-readout": "viability at 28.5 h, 10 µM", "reading-unit": "%", "endpoint-result": 110}
{"compound": "Cc1cccc(CNc2nccnc2-c2cccc(Cl)c2)c1", "assay-readout": "viability at 28.5 h, 10 µM", "reading-unit": "%", "endpoint-result": 109}
{"compound": "COc1cccc(C2CC(=O)Nc3c2c(=O)nc(SC)n3C)c1 (stereo not drawn)", "assay-readout": "viability at 28.5 h, 10 µM", "reading-unit": "%", "endpoint-result": 104}
{"compound": "Cc1ncccc1COC(=O)N1CCC(C(F)(F)F)CC1", "assay-readout": "viability at 28.5 h, 10 µM", "reading-unit": "%", "endpoint-result": 102}
{"compound": "C=CCn1c(SCC(=O)Nc2sc3c(c2C#N)CCC3)nc2scc(-c3ccccc3)c2c1=O", "assay-readout": "viability at 28.5 h, 10 µM", "reading-unit": "%", "endpoint-result": 104}
{"compound": "CCCOCCN1CCN(C(=O)c2nn3cc(C)cnc3c2Cl)CC1", "assay-readout": "viability at 28.5 h, 10 µM", "reading-unit": "%", "endpoint-result": 95.6}
{"compound": "CC1(C)CC(=O)c2sc(NC(=O)c3ccc(Oc4ccccc4)cc3)nc2C1", "assay-readout": "viability at 28.5 h, 10 µM", "reading-unit": "%", "endpoint-result": 95.5}

---

Catalogue of viability at 28.5 h, 10 µM readings, one per entry.
- method: in vitro
- condition-description: human, hela cells, % viability
assay-readout: viability at 28.5 h, 10 µM (%)

{"molecule": "O=C(NCCCO)Nc1ccc2nc(-c3ccco3)c(-c3ccco3)nc2c1", "endpoint-result": 92.4}
{"molecule": "CS(=O)(=O)c1ccc(CNC(=O)c2ccccc2Nc2cccc(C(F)(F)F)c2)cc1", "endpoint-result": 92}
{"molecule": "Cc1nc(S(=O)(=O)CC2CCCO2)n(CC(C)C)c1C (stereo not shown)", "endpoint-result": 116}
{"molecule": "COc1ccc(-c2cc(=O)[nH]c(N3CCN(C)CC3)n2)cc1", "endpoint-result": 90.4}
{"molecule": "COC(=O)COc1ccccc1/C=C1\\SC(c2ccc(C)cc2)=NC1=O", "endpoint-result": 92.6}
{"molecule": "CCc1nc2c(Oc3nc4ccccc4s3)cccn2c1N(C)C(=O)C(C)C", "endpoint-result": 88.5}
{"molecule": "Cc1ccc(C(C)C)c(OCC(=O)n2nc(C)cc2C)c1", "endpoint-result": 87.9}
{"molecule": "COc1ccc2ccccc2c1CNCCCN1CCOCC1 [CBK278209C]", "endpoint-result": 93.8}
{"molecule": "Cc1nnnn1-c1cc(NC(=O)NCCCn2ccnc2)ccc1F", "endpoint-result": 92.1}
{"molecule": "COc1cc(F)ccc1-c1cnc(N)c2ncccc12", "endpoint-result": 81.4}

---

- method: in vitro
- condition-description: human, hela cells, % viability
Catalogue of viability at 28.5 h, 10 µM readings, one per entry.
assay-readout: viability at 28.5 h, 10 µM (%)

{"molecule": "OCCN1CCN(c2cc(Nc3ccc(Oc4ccccc4)cc3)nc3ccnn23)CC1 [CBK037185]", "endpoint-result": 94.9}
{"molecule": "O=C(c1ccc2nc[nH]c2c1)N1CCC2(CCN(Cc3ccccc3)C2)C1 (centres unmarked) [CBK136862]", "endpoint-result": 94.1}
{"molecule": "O=S(=O)(NCc1ccccn1)c1ccc(Br)cc1Br [CBK262291]", "endpoint-result": 93.2}
{"molecule": "CCOC(=O)c1ccccc1NS(=O)(=O)c1cc(Cl)sc1Cl [CBK045448]", "endpoint-result": 85.8}
{"molecule": "Cn1ncc(N2CCC(CNC(=O)COc3ccc(Cl)cc3)C2)cc1=O (centres unmarked) [CBK306517]", "endpoint-result": 79}
{"molecule": "O=C1NCCNC(=O)C2(C/C=C/COc3ccccc31)CCN(C(=O)c1cncs1)CC2 [CBK292023]", "endpoint-result": 95.3}
{"molecule": "Cc1cccc(NC2=NC(=O)/C(=C\\c3ccc(Cl)cc3)S2)c1C [CBK263619]", "endpoint-result": 101}
{"molecule": "CCCCCOc1nccnc1N1CCNCC1 [CBK001901G]", "endpoint-result": 103}
{"molecule": "Nc1nnc(SCC(=O)N2CCN(C(c3ccccc3)c3ccccc3)CC2)s1 [CBK266320]", "endpoint-result": 99.2}
{"molecule": "O=C(CCCN1C(=O)c2ccccc2C1=O)Oc1ccc(-c2ccccc2)cc1 [CBK267144]", "endpoint-result": 98.1}
{"molecule": "CCOc1ccc2nc(NS(=O)(=O)c3ccc4c5c(cccc35)C(=O)N4)sc2c1 [CBK262162]", "endpoint-result": 100}
{"molecule": "CCOc1ccc(S(=O)(=O)N2CCC(C(=O)N3CCOCC3)CC2)cc1Cl [CBK270288]", "endpoint-result": 93.8}
{"molecule": "COc1ccc(CNc2cc(-c3cccc(Cl)c3)nc3ccnn23)cc1 [CBK037037]", "endpoint-result": 95.8}
{"molecule": "COC(=O)c1cnn(-c2cc(Oc3ccccc3C)ncn2)c1N [CBK098668]", "endpoint-result": 102}
{"molecule": "CC(Oc1ccc(F)cc1)C(=O)NCCN1CCOCC1 (centres unmarked) [CBK265508]", "endpoint-result": 99.4}
{"molecule": "COc1ccc(C2(C(=O)NCCN3CCCC3)CC2)cc1 [CBK149824]", "endpoint-result": 95.6}
{"molecule": "CC(C)(C)c1cc(NC(=O)Cn2nc(C(=O)O)c3ccccc3c2=O)n(-c2ccccc2)n1 [CBK297557]", "endpoint-result": 85.1}
{"molecule": "c1c(C2CC2)[nH]c2nc(N3CCCC3)nc(N3CCCC3)c12 [CBK016707G]", "endpoint-result": 113}
{"molecule": "C[C@@H](Nc1cncc(-c2cccs2)n1)c1ccccc1 [CBK065711]", "endpoint-result": 108}
{"molecule": "O/N=C1/CCCCCC1NO (centres unmarked) [CBK264368A]", "endpoint-result": 107}

---

- method: in vitro
- condition-description: human, hela cells, % viability
Doc: threshold 90% (exclusive). Items with viability at 28.5 h, 10 µM beneath it return Y; others return N.

{"compound": "CN(C)CCN(C)c1nc(-c2ccccc2F)cn2ccnc12", "label": "N"}
{"compound": "COc1cccc(CNC(=O)C2CCN(c3nc4c(-c5cccc(C)c5)csc4c(=O)[nH]3)CC2)c1", "label": "Y"}
{"compound": "Cc1ccc(S(=O)(=O)NC(C)(C)CSc2nncn2N)cc1", "label": "N"}
{"compound": "Cc1cn(C2CC(O)C(CN=[N+]=[N-])O2)c(=O)[nH]c1=O (stereo not drawn)", "label": "N"}
{"compound": "O=C(O)c1sccc1Oc1ccc(F)cc1[N+](=O)[O-]", "label": "N"}
